# procedure text: human hepatoma cell viability loss – ATP luminescence, cytotoxicity control for P. falciparum antimalarial project, primary screen (AID 2303);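 also: 0% = DMSO wells and 100% = digitonin-killed cells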
# cond: HepG2 viability, 24-48 h, at 10 µM, hits give high values
inhibition values by entry

compound: CC1(C)[C@H]2CC[C@@H](CNc3nc(NCCc4cnc[nH]4)nc(Nc4ccc5c(c4)OCO5)n3)[C@@H]1C2
inhibition, %: 3

compound: COc1ccc(-c2nc(NC(=O)CS(=O)(=O)c3ccc(OC)cc3)sc2C)cc1
inhibition, %: 6

compound: CSc1ccc2nccc(Nc3ccc(Oc4ccccc4)cc3)c2c1
inhibition, %: 30

compound: CN(C)CCNC(=O)c1ccc(-c2cnc3ccc(NCc4ccc(Cl)c(Cl)c4)nn23)cc1
inhibition, %: 60

compound: CCCc1cc(C(=O)N[C@@H](Cc2ccccc2)[C@H](O)CNC(C)(C)c2cccc(OC)c2)c(F)c(N2CCCC2=O)c1
inhibition, %: 7

compound: CCCCCCCC1CCN(C[C@H](O)c2ccnc3ccc(OC)cc23)CC1
inhibition, %: 23

compound: Cc1cc(CNCCCCCCNCc2ccc(-c3ccccc3)cc2)ccc1O
inhibition, %: 90

compound: COC(=O)c1cc(OC2CCOC2=O)cc2c1OC(C)(C)O2 (centres undefined)
inhibition, %: 6

compound: C=CCOC(=O)N1CCC(CNCc2ccc(-c3cccc(-c4nc5c(C)cccc5[nH]4)c3)cc2)C1 (centres undefined)
inhibition, %: 25

====

# procedure text: inhibition of 3D7 malaria parasite growth – strain 3D7 (AID 2306);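 also: 0% = DMSO wells and 100% = chloroquine plus artemisinin control wells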
# cond: P. falciparum 3D7 erythrocytic growth, LDH absorbance, 72 h; at 2 µM; hits give high values
A collection of compounds and their measured growth inhibition

compound: Cn1nc(-c2cccc(CNCc3ccccc3)c2)c2cnc(NC3CCCC3)nc21
unit descriptor: %
growth inhibition: 85
--
compound: Cc1nnsc1C(=O)Nc1cccc(-c2cccc(-c3nc4c(C)cccc4[nH]3)c2)c1
unit descriptor: %
growth inhibition: 99
--
compound: C[C@@H]1CN(c2cnn(C/C=C/c3ccc(NC(=O)c4ccc([N+](=O)[O-])cc4)cc3)c(=O)c2Cl)C[C@H](C)N1
unit descriptor: %
growth inhibition: 96
--
compound: CN(Cc1ccc(NC(=O)NC2CCN(C(=O)/C=C/c3ccc(Cl)c(Cl)c3)CC2)cc1)C1CCOCC1
unit descriptor: %
growth inhibition: 96
--
compound: Oc1ccc(CCNCCCCCCNCCc2ccc(-c3ccccc3)cc2)cc1O
unit descriptor: %
growth inhibition: 101
--
compound: CN1CCN(c2ccnc3ccc(NC(=O)Nc4cccc5c(Br)cccc45)cc23)CC1
unit descriptor: %
growth inhibition: 100
--
compound: CN1CCCN(Cc2cccc(-c3ccc(NS(=O)(=O)c4cccc5cccnc45)cc3)c2)CC1
unit descriptor: %
growth inhibition: 100
--
compound: COC(=O)c1ccc(OCC(O)CO)cc1O (centres undefined)
unit descriptor: %
growth inhibition: 101
--
compound: COC(=O)c1ccc2c(c1)nc(Nc1cccc(F)c1)n2CC(O)c1ccccn1 (centres undefined)
unit descriptor: %
growth inhibition: 99

====

# test system: L-lactate dehydrogenase (Plasmodium falciparum (isolate CDC / Honduras))
# procedure text: PfLDH activity inhibition – cell lysate, 3D7 strain, counter-screen for P. falciparum growth inhibition project (AID 2304);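 also: 0% = vehicle and 100% = reference inhibitor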
# cond: P. falciparum 3D7 crude extract, LDH APAD/NBT absorbance; at 2 µM; hits give high values

molecule: Cc1cccc2[nH]c(-c3ccc(-c4cccc(CN5CCC(CCN6CCCCC6)CC5)c4)s3)nc12
inhibition, %: -3
--
molecule: CS(=O)(=O)N(c1cccc(F)c1)c1cc(C(=O)N[C@@H](Cc2ccccc2)[C@H](O)CNCc2cccc(C(F)(F)F)c2)cc(N2CCCC2=O)c1
inhibition, %: 1
--
molecule: CCc1c(CCNCCCCCCNC(C)(C)Cc2ccc3c(c2CC)OCO3)ccc(OC)c1OC
inhibition, %: -1
--
molecule: CS(=O)(=O)Nc1ccc2[nH]cc(C3CCN(CC4CCC(NC(=O)/C=C/c5ccc(Cl)c(Cl)c5)CC4)CC3)c2n1 (centres undefined)
inhibition, %: -5
--
molecule: O=C(Nc1cc(=O)[nH]c2nc(-c3ccccc3)nn12)C1CCCCC1
inhibition, %: -4
--
molecule: O=C(Nc1cccc(-c2csc(-c3nc4ccccc4[nH]3)c2)c1)c1ccoc1
inhibition, %: 1
--
molecule: CN(Cc1ccc(NC(=O)NC2CCN(C(=O)/C=C/c3ccc(Cl)c(Cl)c3)CC2)cc1)C1CCOCC1
inhibition, %: 5
--
molecule: CN(C)CCOc1cc(NC(=O)/C=C/c2cccc3ccccc23)ccc1I
inhibition, %: 0
--
molecule: C[C@H](N[C@H]1CCCc2c1[nH]c1ccc(Br)cc21)c1ccccc1
inhibition, %: 4

====

# test system: L-lactate dehydrogenase (Plasmodium falciparum (isolate CDC / Honduras)) (UniProt Q27743)
# Sequence (Q27743 whole entry, looked up): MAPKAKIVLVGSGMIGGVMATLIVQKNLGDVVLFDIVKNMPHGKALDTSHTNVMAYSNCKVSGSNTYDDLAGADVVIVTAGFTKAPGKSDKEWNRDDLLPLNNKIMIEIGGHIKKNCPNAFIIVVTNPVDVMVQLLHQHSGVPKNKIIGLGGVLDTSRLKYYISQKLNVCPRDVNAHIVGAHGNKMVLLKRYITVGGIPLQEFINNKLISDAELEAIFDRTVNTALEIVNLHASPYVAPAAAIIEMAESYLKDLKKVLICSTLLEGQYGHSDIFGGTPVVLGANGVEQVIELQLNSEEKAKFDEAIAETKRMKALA
# procedure text: PfLDH activity inhibition – cell lysate, 3D7 strain, counter-screen for P. falciparum growth inhibition project (AID 2304);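 also: 0% = vehicle and 100% = reference inhibitor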
# cond: P. falciparum 3D7 crude extract, LDH APAD/NBT absorbance; at 2 µM; hits give high values
Collected inhibition values appear next to each entry.

compound: CCCc1cc(C(=O)N[C@@H](Cc2ccccc2)[C@H](O)CNC2CCOCC2)c(F)c(N2CCCCS2(=O)=O)c1
unit descriptor: %
inhibition: -3

compound: CCOC(=O)/C(=N\OC(C(=O)OC(C)(C)C)c1ccccc1)c1csc(NC(c2ccccc2)(c2ccccc2)c2ccccc2)n1 (stereo not given)
unit descriptor: %
inhibition: 5

compound: COc1cccc2cc(C(=O)N[C@@H](CC(C)C)C(=O)N[C@H](/C=N/NC(=O)N3CCN(C)CC3)CCc3ccccc3)oc12
unit descriptor: %
inhibition: 4

compound: O=C(NC1CC1)C1CCN(Cc2cc3ccccc3n2Cc2ccc(Cl)cc2)CC1
unit descriptor: %
inhibition: -1

compound: Cc1cc(Nc2ccc(OCc3ccccc3Cl)cc2)c2cc(Cl)ccc2n1
unit descriptor: %
inhibition: 5

====

Recorded inhibition for the following compounds
# procedure text: human hepatoma cell viability loss – ATP luminescence, cytotoxicity control for P. falciparum antimalarial project, primary screen (AID 2303);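 also: 0% = DMSO wells and 100% = digitonin-killed cells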
# cond: HepG2 viability, 24-48 h, at 10 µM, hits give high values

compound: Cn1c(NC2CCN(CC3CCN(C(=O)/C=C/c4ccc(Cl)c(Cl)c4)CC3)CC2)nc2ccccc21
inhibition [%]: 99
//
compound: N#Cc1ccc(-c2ccc(C(=O)Nc3ccc4c(c3)CCN(C3CCC3)CC4)nc2)cn1
inhibition [%]: 24
//
compound: COc1ccc2[nH]c(C(=O)Nc3cccc(-c4ccc(CN(C)C)cc4)c3)cc2c1
inhibition [%]: 23
//
compound: CN1CCN(c2ccc(Nc3c4ccccc4nc4ccccc34)cc2)CC1
inhibition [%]: -3
//
compound: NC(=O)c1cnc2ccc(-c3cncs3)cc2c1Nc1ccc(F)c(Cl)c1
inhibition [%]: 3
//
compound: CCOc1cc(Cl)c(C(C)NC(=O)c2cccc(OC)c2)cc1OCC (stereo not given)
inhibition [%]: 29
//
compound: CNC(=S)NN=C(C)c1ccccn1
inhibition [%]: 64
//
compound: Cc1[nH]c(C)c(-c2ccc(OCc3ccccc3)cc2)c(=O)c1Br
inhibition [%]: 19
//
compound: CCNc1cc(C(=O)N[C@@H](Cc2ccccc2)[C@H](O)CN[C@H]2CCc3ccccc32)cc(N2CCCC2=O)c1
inhibition [%]: 8
//
compound: O=C(Cn1c(CCc2cccc(F)c2F)nc(=O)c2cccnc21)N(Cc1ccc(-c2ccc(C(F)(F)F)cc2)cc1)C1CCN(C2CCSCC2)CC1
inhibition [%]: 49
//
compound: O=C(NC1CC1)c1cnc(N2CCC(COc3cccc(F)c3)CC2)c(Cl)c1
inhibition [%]: 1
//
compound: Fc1ccc2nc(-c3ccc(-c4ccc(CN5CCCCC5)cc4)cc3)[nH]c2c1
inhibition [%]: 31
//
compound: O=C(Nc1cccc(-c2nc3ccccc3[nH]2)c1)c1cccc(NC(=O)c2ccco2)c1
inhibition [%]: 9
//
compound: O=S(=O)(NCCN1CCCC1)c1ccc(-c2cccc(CNCc3ccc(F)cc3)c2)s1
inhibition [%]: 48
//
compound: CC(C)(C)c1ccccc1SC1=C(O)CC2(CCNCC2)OC1=O
inhibition [%]: 0
//
compound: O=C(Nc1cccc(-c2csc(-c3nc4ccccc4[nH]3)c2)c1)c1ccoc1
inhibition [%]: 36
//
compound: Cc1ccnc(NC(c2cccc(Cl)c2Cl)c2ccc3cccnc3c2O)c1 (stereo not given)
inhibition [%]: 46
//
compound: NC(N)=NN=Cc1c2ccccc2c(Cl)c2ccc(Cl)cc12
inhibition [%]: 97
//
compound: CO/C(=C\C=C\c1cc2cc(Cl)c(Cl)cc2[nH]1)C(=O)NCCCNC12CC3CC(CC(C3)C1)C2
inhibition [%]: 29
//
compound: Cc1nc(NCCCn2ccnc2)cc(-c2cncc(-c3ccc(OC(F)(F)F)cc3)c2)n1
inhibition [%]: 2

====

# procedure text: antimalarial activity against Dd2 strain (AID 2302);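 also: 0% = DMSO untreated growth and 100% = chloroquine plus artemisinin killed control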
# cond: P. falciparum Dd2 in RBCs, LDH growth readout, 72 h; at 2 µM; hits give high values
Mark false (0) for growth inhibition values under 70%, and true (1) for everything at or above.

compound: CN1CCN(c2ccc3nc(-c4ccc5nc(-c6ccc(O)cc6)[nH]c5c4)[nH]c3c2)CC1
answer label: true (1)
//
compound: CCN(CC)CCOc1ccc(N(Cc2ccc(C(C)(C)C)cc2)C(=O)c2ccc(Cc3ccccc3)cc2)cc1OC
answer label: true (1)
//
compound: CN(Cc1ccc(-c2ccc(C(F)(F)F)cc2)cc1)C(=O)Cn1c(CCc2cccc(F)c2F)cc(=O)c2ccc(OCCCN3CCCCC3)cc21
answer label: true (1)
//
compound: COc1ccc(-c2nc3c(N)nc(N)nc3nc2-c2ccccc2Cl)cc1 (tested in a mixture with another compound)
answer label: false (0)
//
compound: Cc1ccc(O)cc1Nc1ccnc2cc(-c3csc(CN(C)CCN(C)C)n3)ccc12
answer label: true (1)
//
compound: CCC(C)Oc1ccc2nc(N)nc(N)c2c1Cl (stereo not drawn)
answer label: false (0)
//
compound: Cc1ccnc(NC(c2cccc(Cl)c2Cl)c2ccc3cccnc3c2O)c1 (stereo not drawn)
answer label: false (0)
//
compound: COc1ccc2nc(C)cc(Nc3ccc(Cl)c(Cl)c3)c2c1
answer label: true (1)
//
compound: COc1ccc(CCN(C)CCOc2ccc(NC(=O)c3cc(SC)cc4c(=O)c5ccccc5[nH]c34)cc2)cc1OC
answer label: false (0)
//
compound: COc1ccc(OC)c(Cc2cnc3nc(N)[nH]c(=O)c3c2C)c1
answer label: false (0)
//
compound: O=C(Nc1ccc(Cl)cc1F)N[C@H]1CCN(CCCCCNC(=O)[C@@H]2C[C@H]2c2ccc(Cl)c(Cl)c2)C1
answer label: false (0)
//
compound: CN1CCC(c2c[nH]c3ccc(NC(=O)Nc4ccc(-c5ccncc5)c(Cl)c4Cl)cc23)CC1
answer label: false (0)
//
compound: O=C(/C=C/c1ccc(Cl)c(Cl)c1)NCC(CCCN1CCC(c2c[nH]c3ccccc23)CC1)c1ccccc1 (stereo not drawn)
answer label: false (0)
//
compound: CN(C)c1nc2cc(-n3cnc4cc(-c5ccc(Cl)cc5)sc4c3=O)ccc2n1CCCN1CCCCC1
answer label: false (0)
//
compound: COc1ccccc1CCN(C)CCN1CCC(NC(=O)c2ccc(-c3ccc(C(F)(F)F)cc3)cc2)CC1
answer label: false (0)
//
compound: CC(C)Nc1nc(NC2CCCCC2)nc(N2CCCCCCC2)n1
answer label: true (1)
//
compound: Cc1cccc2[nH]c(-c3cccc(-c4ccc(NC(=O)NCc5cccc(F)c5)cc4)c3)nc12
answer label: true (1)
